B1: LINE1-mini (parent)
chain: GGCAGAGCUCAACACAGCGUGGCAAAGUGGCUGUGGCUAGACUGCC

variants of: B1; assay: self-cleavage, relative activity (ratio to wild type); higher = more cleavage; in vitro, sequencing; the parent is a self-cleaving ribozyme
reported-metric: self-cleavage

[[record]]
variant_annotation = "C18U C46G"
numeric_result = 1.24

[[record]]
variant_annotation = "C8U G40C"
numeric_result = 0.13

[[record]]
variant_annotation = "C10A C31U"
numeric_result = 0.04

[[record]]
variant_annotation = "G17A C23U"
numeric_result = 0.22

[[record]]
variant_annotation = "A16C G19U"
numeric_result = 0.08

[[record]]
variant_annotation = "G7U C10A"
numeric_result = 0.04

[[record]]
variant_annotation = "G30U C46G"
numeric_result = 1.29

[[record]]
variant_annotation = "G2A"
numeric_result = 0.92

[[record]]
variant_annotation = "G17A G30A"
numeric_result = 0.57

[[record]]
variant_annotation = "G21C C45U"
numeric_result = 1.56

[[record]]
variant_annotation = "G1U A6U"
numeric_result = 0.22

